- Protocol Description: enhancers of NFkB p65 translocation in HUVEC – imaging, IL-1B stimulus, high-content imaging, primary screen (AID 819);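 further: percent activation is computed from the nuclear over cytoplasmic p65 intensity ratio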
- Experimental Setup: HUVEC IL-1B NFkB p65 nuclear translocation imaging; at 2 µM; active compounds read high
The campaign covered roughly 94,000 compounds. About 280 (0.3%) were called active. The entries come from a sample that favours actives as a whole.
List of activation values.
Number only, in %; omit the unit.

Recorded activation, per entry:
CC(C)c1cc(C(N)=O)c(NC(=O)c2cccc(COc3ccc(Br)cc3)c2)s1 ... 2.73
COC(=O)CNC(=O)c1ccccc1[N+](=O)[O-] ... 2.74
Clc1ccc(-c2nnc(-c3ccccc3)nc2N2CCSCC2)cc1 ... 6.76

Ask: Write down activation measured for item COc1ccccc1C(=O)n1nc(-c2ccccc2)nc1N
Reply: 13.8

Ask: Write down activation measured for item CCOC1CS(=O)(=O)CC1OCC (stereo not drawn)
Reply: 12.8

Ask: Write down activation measured for item CCOC(=O)c1c(C)oc2cc(Br)c(OCC(N)=O)cc12
Reply: -3.13

Ask: Write down activation measured for item O=C(CN1C(=O)NC(Cc2ccccc2)(Cc2ccccc2)C1=O)NCC1CCCCC1
Reply: 0

Ask: Write down activation measured for item CCOc1cc(/C=C2/N=C(c3ccc(C(C)(C)C)cc3)OC2=O)cc(Cl)c1OS(C)(=O)=O
Reply: 15.4

Ask: Write down activation measured for item Cc1nnc(SCC(=O)NC(=O)NC2CCCC2)n1N
Reply: -1.65

Ask: Write down activation measured for item Cc1cccc(-n2ncc(C#N)c2-n2cccc2)c1
Reply: -2.16

Ask: Write down activation measured for item COc1ccc(OCC(=O)NN2Cc3ccccc3C2=N)cc1
Reply: 12.3

Ask: Write down activation measured for item COc1ccc(C(=O)Cc2cnn(-c3ccccc3)c2)c(O)c1
Reply: 52.4

Ask: Write down activation measured for item COc1ccc(CC(=O)c2ccc(O)cc2O)cc1OC
Reply: 3.51

Ask: Write down activation measured for item O=C(CCc1ccc(S(=O)(=O)NC2CCCCC2)cc1)NCc1ccccc1
Reply: 1.98

Ask: Write down activation measured for item COc1ccc(C(=O)n2nc(-c3ccc(C)cc3)nc2N)cc1OC
Reply: -6.6

Ask: Write down activation measured for item COC(=O)c1cccc(-n2[nH]nnc2=S)c1
Reply: -3.54

Ask: Write down activation measured for item O=C(N/N=C/C=C/c1ccccc1)C1CC1(c1ccccc1)c1ccccc1 (stereo not drawn)
Reply: 4.51

Ask: Write down activation measured for item COc1ccc(C(=O)Nc2nc(-c3ccc(OC)cc3)c(-c3ccc([N+](=O)[O-])cc3)s2)cc1
Reply: 1.5

Ask: Write down activation measured for item CCOC(=O)c1cnc(-c2ccccc2)nc1Oc1ccc(C)cc1
Reply: -7.86

Ask: Write down activation measured for item C=CCn1c(Cn2nnc3ccccc32)nnc1SCC(=O)N/N=C/c1cc(Br)cc(OC)c1O
Reply: -7.49

Ask: Write down activation measured for item CCN(CC)C(=O)CSC1c2ccccc2C(=O)N1c1ccccc1 (stereo not drawn)
Reply: 16.1

Ask: Write down activation measured for item O=C(CSCc1ccc([N+](=O)[O-])cc1)Nc1cccc(C(=O)Nc2ccccc2C(=O)O)c1
Reply: 7.87

Ask: Write down activation measured for item COc1ccc(C(=O)n2nc(-c3ccc(Cl)cc3)nc2N)cc1OC
Reply: 41.4
